# Experimental details: MRT in iv dosed rat measured upto 8 hrs by LC-MS/MS analysis
# Type: ADME, organism-based
# Condition notes: in vivo
Reported property: MRT (h)

COC(=O)Nc1ccc2c(c1)NC(=O)[C@H](C)CCC[C@H](c1ccc(-c3cc(Cl)ccc3-n3cc(C(F)(F)F)cn3)c[n+]1[O-])c1nc-2c(C)[nH]1 ... 11

###

# Experimental details: Clearance in rat
# Assay type: ADME
# Condition notes: in vivo
Reported property: clearance (mL/min/kg)

O=C(/C=C/c1cc(Cl)ccc1-n1cnnn1)N[C@@H](CC(=O)N1CCN(c2ccccc2)CC1)C(=O)Nc1ccc(C(=O)O)cc1 ... 9.2
